system: M14; test: NCI tumour cell line growth inhibition, 48 h
Activity calls are given as the source filed them. No stated cut-off is given here; in the data, active = GI50 up to about 1.1 µM and inactive = higher.
In this exercise, the only acceptable responses are active, inactive

Examples with answers:
Ask | Outcome? N=S(c1ccccc1)c1ccccc1[N+](=O)[O-] (stereo unspecified)
Reply | inactive

Ask | Outcome? Sc1nnc(Cc2ccc(Cl)cc2)[nH]1
Reply | inactive

Ask | Outcome? CCOC(=O)N1c2c(c3ccccc3n2C(=O)OCC)C(=O)C(OC)N1C(=O)OCC (stereo unspecified)
Reply | inactive

Ask | Outcome? OCCOc1ccc(-c2cc(-c3ccccn3)nc(-c3ccccn3)c2)cc1
Reply | active

Ask | Outcome? Clc1ccc(/N=c2\oc3ccccc3cc2-c2nc3ccccc3[nH]2)c(Cl)c1
Reply | inactive

More entries:
Ask | Outcome? C=C(CCOC)CCC1CCCCC(=C)[C@H]1OC(C)=O (stereo partly specified)
Reply | inactive

Entry source: ChEMBL document CHEMBL1201862
